Biological target: human P2X2/3 receptor (Homo sapiens, UniProt P56373+Q9UBL9)
Construct: expressed in transfected cells; host or cells: CHO-K1
Assay: P2X3/P2X2/3 FLIPR (Fluorometric Imaging Plate Reader) Assay, P2X2/3
Type: cell-based
Details: CHO-K1 cells transfected with human P2X2/3; agonist α,β-meATP 5 μM; Table 1; read-out: P2X2/3 pKi (converted)
Description: P2X3/P2X2/3 FLIPR (Fluorometric Imaging Plate Reader) Assay CHO-K1 cells were transfected with cloned rat P2X3 or human P2X2/3 receptor subunits and passaged in flasks. […] Test compounds (dissolved in DMSO at 10 mM and serially diluted with FB) or vehicle were added to each well (25 μl of a 4× solution) and allowed to equilibrate for 20 minutes at room temperature. […] Fluorescence was measured for an additional 2 minutes at 1 second intervals after agonist addition. […]
endpoint-name: Ki (nM)

1: Cc1cnc(CNC(=O)c2cc(-c3ccc(Cl)cn3)cc(-n3ncnc3CF)c2)cn1
2: CCCc1ncnn1-c1cc(C(=O)NC(C)c2cnccn2)cc(-c2ccc(Cl)cn2)c1 (stereo not drawn)
3: COC[C@@H](C)NC(=O)c1cc(-c2ccc(C)cc2)cc(-n2ncnc2C(C)C)c1
4: CCn1nncc1-c1cc(C(=O)NC(C)c2cnccn2)cc(-c2ccc(C)cc2)c1 (stereo not drawn)
5: Cc1ccc(-c2cc(C(=O)NCc3ccc(=O)n(C)c3)cc(-n3ncnc3C(C)C)c2)nc1
Give the order of the entries above, sorted from least to greatest Ki. Field: ranking. Enter the labels in the order requested.
2, 4, 3, 1, 5
(2: 355 nM, 4: 550 nM, 3: 813 nM, 1: 2570 nM, 5: 4370 nM)

---

target: rat P2X3 receptor (Rattus norvegicus); construct: expressed in transfected cells; host or cells: CHO-K1; assay: P2X3/P2X2/3 FLIPR (Fluorometric Imaging Plate Reader) Assay, P2X3; type: cell-based; settings: CHO-K1 cells transfected with rat P2X3; agonist α,β-meATP 1 μM; Table 1; read-out: P2X3 pKi (converted)
endpoint-name: Ki (nM)

Example compounds with recorded Ki:
>>> measured("Cc1ccc(-c2cc(C(=O)N[C@@H](C)CO)cc(-n3ncnc3-c3ccccc3)c2)nc1 [Compound 144]")
182
>>> measured("Cc1ccc(-c2cc(C(=O)NC(C)c3cnccn3)cc(-n3c(C)nnc3C(C)C)c2)cc1 (stereo not drawn) [Compound 31]")
35.5

A: CCc1ncnn1-c1cc(C(=O)NC(C)c2cnccn2)cc(-c2ccc(C)cn2)c1 (stereo not drawn) [Compound 128]
B: COC(C)c1ncnn1-c1cc(C(=O)N[C@@H](C)CO)cc(-c2ccc(C)cc2)c1 (stereo partly drawn) [Compound 47]
C: Cc1ccc(-c2cc(C(=O)N[C@@H](C)CO)cc(-n3ncnc3C(C)(F)F)c2)nc1 [Compound 71]
Order each entry by recorded Ki, climbing from the minimum. Would you mind listing the labels in the order requested?
C, B, A

1: Cc1ccc(-c2cc(C(=O)N[C@@H](C)CO)cc(-n3ncnc3C(C)(C)C)c2)nc1 [Compound 94]
2: Cc1ccc(-c2cc(-n3ncnc3C(F)(F)F)cc(C(=O)N[C@@H](C)CO)c2F)nc1 [Compound 167]
Which item exceeds the other in Ki, 1 or 2 ? # respond with the chosen item's label
1

I: COc1ncnn1-c1cc(C(=O)NC(C)c2cnccn2)cc(-c2ccc(Cl)cc2)c1 (stereo not drawn) [Compound 50]
II: Cc1ccc(-c2cc(C(=O)NC(C)c3cnccn3)cc(-c3nnc4ccccn34)c2)c(F)c1 (stereo not drawn) [Compound 4]
III: C[C@@H](CO)NC(=O)c1cc(-c2ccc(Cl)cn2)cc(-n2ncnc2C(F)F)c1 [Compound 78]
// smallest Ki at index 0, largest at the end Rank the items, then write their labels in that order.
I, III, II

1: CCn1nncc1-c1cc(C(=O)N[C@H](C)COC)cc(-c2ccc(C)cc2)c1 [Compound 37]
2: CCc1ncnn1-c1cc(C(=O)NC2CC2)cc(-c2ccc(Cl)cn2)c1 [Compound 108]
3: Cc1ccc(-c2cc(C(=O)NC(C)c3cnccn3)cc(-n3nncc3C)c2)cc1 (stereo not drawn) [Compound 7]
4: COCC(C)NC(=O)c1cc(-c2ccc(C)cc2)cc(-n2ncnc2C(C)C)c1 (stereo not drawn) [Compound 14]
5: Cc1ccc(-c2cc(C(=O)NC3CC3)cc(-n3ncnc3C)c2)nc1 [Compound 68]
Sort entries by Ki from minimum to maximum value. Output spec: a listing of the labels in the requested order.
3, 4, 2, 5, 1
(3: 3.72 nM, 4: 12 nM, 2: 97.7 nM, 5: 170 nM, 1: 380 nM)

---

target: rat P2X3 receptor (Rattus norvegicus, UniProt P49654); construct: expressed in transfected cells; host or cells: CHO-K1; assay: P2X3/P2X2/3 FLIPR (Fluorometric Imaging Plate Reader) Assay, P2X3; type: cell-based; conditions: CHO-K1 cells transfected with rat P2X3; agonist α,β-meATP 1 μM; Table 1; read-out: P2X3 pKi (converted)
Sequence (P49654 whole entry): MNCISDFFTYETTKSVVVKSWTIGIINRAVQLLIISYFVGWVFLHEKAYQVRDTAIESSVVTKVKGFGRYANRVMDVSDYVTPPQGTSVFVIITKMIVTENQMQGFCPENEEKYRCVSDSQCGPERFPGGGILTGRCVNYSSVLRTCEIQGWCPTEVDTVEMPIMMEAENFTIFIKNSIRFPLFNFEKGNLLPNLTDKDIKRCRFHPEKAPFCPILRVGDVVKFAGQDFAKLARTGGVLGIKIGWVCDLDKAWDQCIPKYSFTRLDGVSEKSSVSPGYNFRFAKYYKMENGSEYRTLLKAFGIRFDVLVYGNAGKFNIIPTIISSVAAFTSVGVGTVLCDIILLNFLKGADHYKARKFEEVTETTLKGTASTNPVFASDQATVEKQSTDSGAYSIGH
endpoint-name: Ki (nM)

Look over these answered cases.
>>> measured("COC(C)c1ncnn1-c1cc(C(=O)NCc2cnc(C)cn2)cc(-c2ccc(C)cc2)c1 (stereo not drawn) [Compound 134]")
6.61
>>> measured("Cc1ccc(-c2cc(C(=O)NC(C)c3cnccn3)cc(-n3ncnc3C(C)N(C)C)c2)nc1 (stereo not drawn) [Compound 142]")
9.12

1: Cc1ccc(-c2cc(C(=O)N[C@@H](C)CO)cc(-n3nncc3C(C)C)c2)cc1 [Compound 8]
2: CCc1ncnn1-c1cc(C(=O)NCc2cnc(C)cn2)cc(-c2ccc(Cl)cn2)c1 [Compound 124]
Between 1 and 2 , which one shows the larger Ki value? Please reply using the label of the selected record.
2

I: Cc1ccc(-c2cc(C(=O)NC(C)c3cnccn3)cc(-n3ncnc3C(C)O)c2)cc1 (stereo not drawn) [Compound 49]
II: Cc1ccc(-c2cc(C(=O)N[C@@H](C)CO)cc(-n3nncc3C(C)C)c2)c(F)c1 [Compound 24]
Which shows the larger Ki value: I or II ? Lab note: record the label of whichever item you select.
I
(I: 5.13 nM, II: 3.31 nM)

a: Cc1ccc(-c2cc(C(=O)NC(C)c3cnccn3)cc(-n3ncnc3C(F)(F)F)c2)cc1 (stereo not drawn) [Compound 66]
b: Cc1ccc(-c2cc(C(=O)N[C@@H](C)CO)cc(-n3ncnc3C(F)(F)F)c2)nc1 [Compound 97]
c: Cc1ccc(-c2cc(C(=O)NC(C)c3cnccn3)cc(-n3ncnc3C(C)(F)F)c2)nc1 (stereo not drawn) [Compound 70]
d: Cc1ccc(-c2cc(C(=O)N[C@@H](C)CO)cc(-n3ncnc3C)c2)nc1 [Compound 102]
e: Cc1ccc(-c2cc(C(=O)NCc3cnc(C)cn3)cc(-n3ncnc3C3CNC3)c2)nc1 [Compound 151]
Ordering: ascending Ki. Thanks in advance for listing the labels in the requested order.
c, a, b, d, e
(c: 1.91 nM, a: 3.72 nM, b: 8.13 nM, d: 263 nM, e: 676 nM)

a: CC(C)c1ncnn1-c1cc(C(=O)NC2CC2)cc(-c2ccc(Cl)cn2)c1 [Compound 123]
b: Cc1ccc(-c2cc(C(=O)NCc3cnc(C)cn3)cc(-n3ncnc3C(F)(F)F)c2)cc1 [Compound 67]
c: CCCc1ncnn1-c1cc(C(=O)NC(C)c2cnccn2)cc(-c2ccc(C)cn2)c1 (stereo not drawn) [Compound 115]
d: COCC(C)NC(=O)c1cc(-c2ccc(C)cc2)cc(-n2nncc2C)c1 (stereo not drawn) [Compound 5]
Ascending sort, Ki. // ordering of labels required in reply
c, b, a, d
(c: 3.31 nM, b: 6.31 nM, a: 11 nM, d: 603 nM)

---

Target: human P2X2/3 receptor (Homo sapiens, UniProt P56373+Q9UBL9)
Construct: expressed in transfected cells; host or cells: CHO-K1
Sequence (Q9UBL9 1-471): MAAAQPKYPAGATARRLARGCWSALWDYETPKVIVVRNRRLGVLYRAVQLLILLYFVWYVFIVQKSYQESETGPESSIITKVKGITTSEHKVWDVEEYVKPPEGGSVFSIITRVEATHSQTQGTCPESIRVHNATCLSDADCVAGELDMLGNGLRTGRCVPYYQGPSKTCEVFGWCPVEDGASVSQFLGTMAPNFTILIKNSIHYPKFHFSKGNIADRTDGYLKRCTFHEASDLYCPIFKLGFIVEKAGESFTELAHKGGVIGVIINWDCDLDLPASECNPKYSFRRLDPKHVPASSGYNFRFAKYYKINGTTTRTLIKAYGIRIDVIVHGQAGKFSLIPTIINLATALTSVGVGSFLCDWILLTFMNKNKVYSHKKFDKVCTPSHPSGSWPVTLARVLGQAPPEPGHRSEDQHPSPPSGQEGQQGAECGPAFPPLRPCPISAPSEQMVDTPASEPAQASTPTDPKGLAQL
Sequence (P56373 1-397): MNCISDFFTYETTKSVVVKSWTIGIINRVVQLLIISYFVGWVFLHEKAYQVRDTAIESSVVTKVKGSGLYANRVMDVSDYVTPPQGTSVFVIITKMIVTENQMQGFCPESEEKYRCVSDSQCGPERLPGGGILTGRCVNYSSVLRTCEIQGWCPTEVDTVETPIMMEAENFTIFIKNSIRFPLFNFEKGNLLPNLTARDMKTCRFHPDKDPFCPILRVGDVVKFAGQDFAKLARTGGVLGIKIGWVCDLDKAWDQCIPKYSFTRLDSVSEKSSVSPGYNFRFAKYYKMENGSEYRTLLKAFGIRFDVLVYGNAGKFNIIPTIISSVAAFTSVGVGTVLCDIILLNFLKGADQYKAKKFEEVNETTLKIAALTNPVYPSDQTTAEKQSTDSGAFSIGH
Assay: P2X3/P2X2/3 FLIPR (Fluorometric Imaging Plate Reader) Assay, P2X2/3
Type: cell-based
Details: CHO-K1 cells transfected with human P2X2/3; agonist α,β-meATP 5 μM; Table 1; read-out: P2X2/3 pKi (converted)
endpoint-name: Ki (nM)

Examples with answers:
>>> measured("COCC(C)NC(=O)c1cc(-c2ccc(C)cc2)cc(-n2nncc2C(C)C)c1 (stereo not drawn)")
501
>>> measured("Cc1ccc(-c2cc(C(=O)N[C@@H](C)CO)cc(-n3ncnc3C(C)(F)F)c2)nc1")
2290
>>> measured("Cc1ccc(-c2cc(C(=O)NC(C)c3cnccn3)cc(-c3nnc4ccccn34)c2)c(F)c1 (stereo not drawn)")
1230

a: CC(C)c1ncnn1-c1cc(C(=O)N[C@@H](C)CO)cc(-c2ccc(Cl)cn2)c1
b: Cc1ccc(-c2cc(C(=O)NC(C)CO)cc(-n3cnnc3C(C)C)c2)cc1 (stereo not drawn)
c: COCc1ncnn1-c1cc(C(=O)N[C@@H](C)CO)cc(-c2ccc(C)cc2)c1
d: CC(C)Oc1ncnn1-c1cc(C(=O)NC(C)c2cnccn2)cc(-c2ccc(Cl)cc2)c1 (stereo not drawn)
Exam item: list the entries in increasing order of Ki. API: response body holds the labels in the requested order.
d, a, c, b
(d: 891 nM, a: 1290 nM, c: 3160 nM, b: 10000 nM)

I: CCCc1ncnn1-c1cc(C(=O)NC(C)CN(C)C)cc(-c2ccc(C)cc2)c1 (stereo not drawn)
II: Cc1ccc(-c2cc(C(=O)NC(C)c3cnccn3)cc(-n3ncnc3C(C)N(C)C)c2)nc1 (stereo not drawn)
III: CC(NC(=O)c1cc(-c2ccc(Cl)cn2)cc(-n2ncnc2C(C)(C)C)c1)c1cnccn1 (stereo not drawn)
IV: Cc1cnc(CNC(=O)c2cc(-c3ccc(Cl)cn3)cc(-n3ncnc3C(C)N(C)C)c2)cn1 (stereo not drawn)
List the 4 entries from lowest Ki to highest Ki value. Lab note: record answer as labels in requested order.
III, II, IV, I
